Reference for the values: the supplement of paper PMC3342239

# System: Saccharomyces cerevisiae
# ASSAY_PROTOCOL: fraction of cells in G1 phase (DNA content, flow cytometry); higher = more cells with unreplicated DNA (G1 delay)
# CONDITION_DETAILS: temperature: 30 C; YPD; JTY2953 pdr5 snq2 (sensitized); drug added to: cultures diluted from stationary phase; 6-7 h
Where a name gives a salt, the structure may show the parent alone.
MEASURE: fraction of cells in G1 phase
Just the number.

Fill blank: measured fraction of cells in G1 phase of the compound CC#C[C@]1(O)CC[C@H]2[C@@H]3CCC4=CC(=O)CCC4=C3[C@@H](c3ccc(N(C)C)cc3)C[C@@]21C [Mifepristone] (46.5541 µM) is ____.
0.469

// repeat for CCN(CC)C(=O)/C(C#N)=C/c1cc(O)c(O)c([N+](=O)[O-])c1 [Entacapone] (65.5109 µM) and report
0.508

// repeat for CCCCC[C@H](O)/C=C/[C@H]1[C@H](O)CC(=O)[C@@H]1CCCCCCC(=O)O [Alprostadil] (56.4189 µM) and report
0.447

// repeat for CCC(NC(C)C)C(O)c1ccc(O)c2[nH]c(=O)ccc12 (centres undefined) [Procaterol hcl] (68.8787 µM) and report
0.526

// repeat for CCOC(=O)c1cnc2c(cnn2CC)c1NN=C(C)C [Etazolate] (69.1229 µM) and report
0.5

// repeat for CCOC(=O)C1=C[C@]2(CC)CCCN3CCc4c(n1c1ccccc41)[C@@H]32 [Vinpocetine] (57.0671 µM) and report
0.439

Next:
Fill blank: measured fraction of cells in G1 phase of the compound CCOC(=O)C1=C(COCCN)NC(C)=C(C(=O)OC)C1c1ccccc1Cl (centres undefined) [Amlodipine] (48.9134 µM) is ____.
0.768

// repeat for CCCNCC(O)COc1ccccc1C(=O)CCc1ccccc1 (centres undefined) [Propafenone] (58.5652 µM) and report
0.489

// repeat for c1cnc(N2CCN(Cc3ccc4c(c3)OCO4)CC2)nc1 [Piribedil HCl] (67.0359 µM) and report
0.532

###

# System: Saccharomyces cerevisiae
# ASSAY_PROTOCOL: fraction of cells in G1 phase (DNA content, flow cytometry); higher = more cells with unreplicated DNA (G1 delay)
# CONDITION_DETAILS: temperature: 30 C; YPD; JTY2953 pdr5 snq2 (sensitized); drug added to: cultures diluted from stationary phase; 6-7 h
Where a name gives a salt, the structure may show the parent alone.
fraction of cells in G1 phase reference
Just the number.

Fill blank: measured fraction of cells in G1 phase of the molecule COC(=O)C1=C(C)NC(C)=C(C(=O)OCCN(C)Cc2ccccc2)C1c1cccc([N+](=O)[O-])c1 (stereo not given) [Nicardipine] (38.7597 µM) is ____.
0.5

// repeat for CC[C@H](C)C(=O)O[C@H]1CCC=C2C=C[C@H](C)[C@H](CC[C@@H]3C[C@@H](O)CC(=O)O3)[C@H]21 [Mevastatin] (51.2132 µM) and report
0.502

// repeat for CC[C@@]1(O)C(=O)OCc2c1cc1n(c2=O)Cc2cc3cc(O)ccc3nc2-1 [10-hydroxycamptothecin] (54.8906 µM) and report
0.499

// repeat for CO[C@H](C(=O)[C@@H](O)[C@@H](C)O)[C@@H]1Cc2cc3cc(O[C@H]4C[C@@H](O[C@H]5C[C@@H](O)[C@H](O)[C@@H](C)O5)[C@H](O)[C@@H](C)O4)c(C)c(O)c3c(O)c2C(=O)[C@H]1O[C@H]1C[C@@H](O[C@H]2C[C@@H](O[C@H]3C[C@](C)(O)[C@H](O)[C@@H](C)O3)[C@@H](O)[C@@H](C)O2)[C@H](O)[C@@H](C)O1 [Plicamycin] (18.4303 µM) and report
0.513

Next:
Fill blank: measured fraction of cells in G1 phase of the molecule Clc1ccccc1CN1CCc2sccc2C1 [Ticlopidine HCl] (75.8175 µM) is ____.
0.505
